# Tested on: HT-29
# procedure.text: Antiproliferative activity against human HT-29 cells after 96 hrs by SRB assay
# Type: functional, cell-based
# applied.conditions: HT-29, 96 h
Measured pIC50 by item
Note: pIC50 values are expressed as the negative base-10 logarithm of concentration in M.

The following compounds have reported results that may help.
### Prompt Name the reported pIC50 value associated with the compound `C=C(C)[C@@H]1CC[C@]2(C)CC[C@]3(C)[C@H](CC[C@@H]4[C@@]5(C)CC[C@@H](O)[C@](C)(C(=O)OCCCBr)[C@@H]5CC[C@]43C)[C@@H]12`
### Response 4.61

### Prompt Name the reported pIC50 value associated with the compound `C/C(=C\CC/C(C)=C/CC[C@@H]1[C@@]2(C)CCC(=O)C(C)(C)[C@@H]2CC[C@@]1(C)O)CC/C=C(\C)C(=O)OCCCCOC(=O)/C(C)=C/CC/C(C)=C/CC/C(C)=C/CC[C@@H]1[C@@]2(C)CC[C@H](O)C(C)(C)[C@@H]2CC[C@@]1(C)O`
### Response 5.09

// below: pIC50 requested for another compound
### Prompt Name the reported pIC50 value associated with the compound `C=C(C)[C@@H]1CC[C@]2(C)CC[C@]3(C)[C@H](CC[C@@H]4[C@@]5(C)CC[C@@H](O)[C@](C)(C(=O)OCCBr)[C@@H]5CC[C@]43C)[C@@H]12`
### Response 4.64

----------
Measured IC50 by item
# System: A-375
# procedure.text: Antiproliferative activity against human A375 cells after 96 hrs by SRB assay
# Type: functional, cell-based
# applied.conditions: A-375, 96 h
Numbers only; they are read as µM.

The following compounds have reported results that may help.
### Prompt Name the reported IC50 value associated with the compound `C/C(=C\CC/C(C)=C/CC[C@@H]1[C@@]2(C)CCC(=O)C(C)(C)[C@@H]2CC[C@@]1(C)O)CC/C=C(\C)C(=O)OCCCOC(=O)/C(C)=C/CC/C(C)=C/CC/C(C)=C/CC[C@@H]1[C@@]2(C)CC[C@@H](O)C(C)(C)[C@@H]2CC[C@@]1(C)O`
### Response 11.1

### Prompt Name the reported IC50 value associated with the compound `C/C(=C\CC/C(C)=C/CC[C@@H]1[C@@]2(C)CCC(=O)C(C)(C)[C@@H]2CC[C@@]1(C)O)CC/C=C(\C)C(=O)OCCOC(=O)/C(C)=C/CC/C(C)=C/CC/C(C)=C/CC[C@@H]1[C@@]2(C)CCC(=O)C(C)(C)[C@@H]2CC[C@@]1(C)O`
### Response 24.5

// below: IC50 requested for another compound
### Prompt Name the reported IC50 value associated with the compound `C=C(C)[C@@H]1CC[C@]2(C)CC[C@]3(C)[C@H](CC[C@@H]4[C@@]5(C)CC[C@@H](O)[C@](C)(C(=O)OCCCBr)[C@@H]5CC[C@]43C)[C@@H]12`
### Response 16.7

----------
# System: A-375
# procedure.text: Antiproliferative activity against human A375 cells after 96 hrs by SRB assay
# Assay type: functional, cell-based
# applied.conditions: A-375, 96 h
measurement.name: pIC50
Note: pIC50 values are expressed as the negative base-10 logarithm of concentration in M.

### Prompt Name the reported pIC50 value associated with the compound `C/C(=C\CC/C(C)=C/CC[C@@H]1[C@@]2(C)CCC(=O)C(C)(C)[C@@H]2CC[C@@]1(C)O)CC/C=C(\C)C(=O)OCCCCBr`
### Response 4.84

// below: pIC50 requested for another compound
### Prompt Name the reported pIC50 value associated with the compound `C/C(=C\CC/C(C)=C/CC[C@@H]1[C@@]2(C)CCC(=O)C(C)(C)[C@@H]2CC[C@@]1(C)O)CC/C=C(\C)C(=O)OCCOC(=O)/C(C)=C/CC/C(C)=C/CC/C(C)=C/CC[C@@H]1[C@@]2(C)CC[C@@H](O)C(C)(C)[C@@H]2CC[C@@]1(C)O`
### Response 4.81

----------
# System: HT-29
# procedure.text: Antiproliferative activity against human HT-29 cells after 96 hrs by SRB assay
# Assay type: functional, cell-based
# applied.conditions: HT-29, 96 h
measurement.name: pIC50
Note: pIC50 values are expressed as the negative base-10 logarithm of concentration in M.

### Prompt Name the reported pIC50 value associated with the molecule `C/C(=C\CC/C(C)=C/CC[C@@H]1[C@@]2(C)CCC(=O)C(C)(C)[C@@H]2CC[C@@]1(C)O)CC/C=C(\C)C(=O)OCCCCBr`
### Response 4.84

Further cases:
### Prompt Name the reported pIC50 value associated with the molecule `C/C(=C\CC/C(C)=C/CC[C@@H]1[C@@]2(C)CCC(=O)C(C)(C)[C@@H]2CC[C@@]1(C)O)CC/C=C(\C)C(=O)OCCOC(=O)/C(C)=C/CC/C(C)=C/CC/C(C)=C/CC[C@@H]1[C@@]2(C)CCC(=O)C(C)(C)[C@@H]2CC[C@@]1(C)O`
### Response 4.85

----------
# Test system: A-375
# procedure.text: Antiproliferative activity against human A375 cells after 96 hrs by SRB assay
# Format: functional, cell-based
# applied.conditions: A-375, 96 h
measurement.name: pIC50
Note: pIC50 values are expressed as the negative base-10 logarithm of concentration in M.

### Prompt Name the reported pIC50 value associated with the compound `C=C(C)[C@@H]1CC[C@]2(C)CC[C@]3(C)[C@H](CC[C@@H]4[C@@]5(C)CC[C@@H](O)[C@](C)(C(=O)OCCBr)[C@@H]5CC[C@]43C)[C@@H]12`
### Response 4.76

### Prompt Name the reported pIC50 value associated with the compound `C/C(=C\CC/C(C)=C/CC[C@@H]1[C@@]2(C)CCC(=O)C(C)(C)[C@@H]2CC[C@@]1(C)O)CC/C=C(\C)C(=O)OCCCBr`
### Response 4.93

### Prompt Name the reported pIC50 value associated with the compound `C=C(C)[C@@H]1CC[C@]2(C)CC[C@]3(C)[C@H](CC[C@@H]4[C@@]5(C)CC[C@@H](O)[C@](C)(C(=O)OCCCCBr)[C@@H]5CC[C@]43C)[C@@H]12`
### Response 4.74

### Prompt Name the reported pIC50 value associated with the compound `C/C(=C\CC/C(C)=C/CC[C@@H]1[C@@]2(C)CCC(=O)C(C)(C)[C@@H]2CC[C@@]1(C)O)CC/C=C(\C)C(=O)OCCCOC(=O)/C(C)=C/CC/C(C)=C/CC/C(C)=C/CC[C@@H]1[C@@]2(C)CCC(=O)C(C)(C)[C@@H]2CC[C@@]1(C)O`
### Response 4.98

### Prompt Name the reported pIC50 value associated with the compound `C/C(=C\CC/C(C)=C/CC[C@@H]1[C@@]2(C)CCC(=O)C(C)(C)[C@@H]2CC[C@@]1(C)O)CC/C=C(\C)C(=O)OCCCCOC(=O)/C(C)=C/CC/C(C)=C/CC/C(C)=C/CC[C@@H]1[C@@]2(C)CCC(=O)C(C)(C)[C@@H]2CC[C@@]1(C)O`
### Response 4.91

// below: pIC50 requested for another compound
### Prompt Name the reported pIC50 value associated with the compound `C/C(=C\CC/C(C)=C/CC[C@@H]1[C@@]2(C)CCC(=O)C(C)(C)[C@@H]2CC[C@@]1(C)O)CC/C=C(\C)C(=O)OCCCCOC(=O)/C(C)=C/CC/C(C)=C/CC/C(C)=C/CC[C@@H]1[C@@]2(C)CC[C@H](O)C(C)(C)[C@@H]2CC[C@@]1(C)O`
### Response 4.97

----------
# Test system: HT-29
# procedure.text: Antiproliferative activity against human HT-29 cells after 96 hrs by SRB assay
# Type: functional, cell-based
# applied.conditions: HT-29, 96 h
measurement.name: IC50 (µM)
Numbers only; they are read as µM.

### Prompt For the record `C/C(=C\CC/C(C)=C/CC[C@@H]1[C@@]2(C)CCC(=O)C(C)(C)[C@@H]2CC[C@@]1(C)O)CC/C=C(\C)C(=O)OCCCCOC(=O)/C(C)=C/CC/C(C)=C/CC/C(C)=C/CC[C@@H]1[C@@]2(C)CCC(=O)C(C)(C)[C@@H]2CC[C@@]1(C)O` , what value of IC50 is listed for HT-29?
### Response 8.8

### Prompt For the record `C/C(=C\CC/C(C)=C/CC[C@@H]1[C@@]2(C)CCC(=O)C(C)(C)[C@@H]2CC[C@@]1(C)O)CC/C=C(\C)C(=O)OCCCOC(=O)/C(C)=C/CC/C(C)=C/CC/C(C)=C/CC[C@@H]1[C@@]2(C)CC[C@@H](O)C(C)(C)[C@@H]2CC[C@@]1(C)O` , what value of IC50 is listed for HT-29?
### Response 6.8

### Prompt For the record `C/C(=C\CC/C(C)=C/CC[C@@H]1[C@@]2(C)CCC(=O)C(C)(C)[C@@H]2CC[C@@]1(C)O)CC/C=C(\C)C(=O)OCCOC(=O)/C(C)=C/CC/C(C)=C/CC/C(C)=C/CC[C@@H]1[C@@]2(C)CC[C@@H](O)C(C)(C)[C@@H]2CC[C@@]1(C)O` , what value of IC50 is listed for HT-29?
### Response 10

### Prompt For the record `C/C(=C\CC/C(C)=C/CC[C@@H]1[C@@]2(C)CCC(=O)C(C)(C)[C@@H]2CC[C@@]1(C)O)CC/C=C(\C)C(=O)OCCCOC(=O)/C(C)=C/CC/C(C)=C/CC/C(C)=C/CC[C@@H]1[C@@]2(C)CCC(=O)C(C)(C)[C@@H]2CC[C@@]1(C)O` , what value of IC50 is listed for HT-29?
### Response 5.4

// below: IC50 requested for another molecule
### Prompt For the record `C/C(=C\CC/C(C)=C/CC[C@@H]1[C@@]2(C)CCC(=O)C(C)(C)[C@@H]2CC[C@@]1(C)O)CC/C=C(\C)C(=O)OCCCBr` , what value of IC50 is listed for HT-29?
### Response 8.1
